Entries and their DC50 values follow.
- Target Entity: Protein cereblon/Signal transducer and activator of transcription 6 (Homo sapiens, UniProt P42226+Q96SW2)
- Sequence (P42226 whole entry): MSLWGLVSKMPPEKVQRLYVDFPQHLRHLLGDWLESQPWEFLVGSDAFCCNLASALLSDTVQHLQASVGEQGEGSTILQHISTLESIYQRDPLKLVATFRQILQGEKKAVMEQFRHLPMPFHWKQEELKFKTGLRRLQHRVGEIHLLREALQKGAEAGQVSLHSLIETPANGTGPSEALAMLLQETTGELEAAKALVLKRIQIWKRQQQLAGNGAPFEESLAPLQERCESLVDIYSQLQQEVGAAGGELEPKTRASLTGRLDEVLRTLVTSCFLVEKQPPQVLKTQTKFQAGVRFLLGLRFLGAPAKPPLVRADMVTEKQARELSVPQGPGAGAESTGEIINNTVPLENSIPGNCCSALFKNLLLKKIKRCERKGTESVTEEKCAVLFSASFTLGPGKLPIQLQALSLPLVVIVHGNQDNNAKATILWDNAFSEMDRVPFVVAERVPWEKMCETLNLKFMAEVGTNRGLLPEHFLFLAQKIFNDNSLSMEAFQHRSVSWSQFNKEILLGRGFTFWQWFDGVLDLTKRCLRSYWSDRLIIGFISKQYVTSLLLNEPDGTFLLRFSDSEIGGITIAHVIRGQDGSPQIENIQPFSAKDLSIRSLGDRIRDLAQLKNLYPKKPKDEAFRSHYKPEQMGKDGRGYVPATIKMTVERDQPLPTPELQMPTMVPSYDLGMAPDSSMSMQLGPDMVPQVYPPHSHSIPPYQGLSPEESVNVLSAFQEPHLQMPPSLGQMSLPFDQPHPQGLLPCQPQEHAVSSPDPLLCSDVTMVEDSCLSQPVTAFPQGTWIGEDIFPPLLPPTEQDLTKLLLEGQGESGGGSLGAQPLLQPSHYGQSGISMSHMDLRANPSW
- Sequence (Q96SW2 whole entry): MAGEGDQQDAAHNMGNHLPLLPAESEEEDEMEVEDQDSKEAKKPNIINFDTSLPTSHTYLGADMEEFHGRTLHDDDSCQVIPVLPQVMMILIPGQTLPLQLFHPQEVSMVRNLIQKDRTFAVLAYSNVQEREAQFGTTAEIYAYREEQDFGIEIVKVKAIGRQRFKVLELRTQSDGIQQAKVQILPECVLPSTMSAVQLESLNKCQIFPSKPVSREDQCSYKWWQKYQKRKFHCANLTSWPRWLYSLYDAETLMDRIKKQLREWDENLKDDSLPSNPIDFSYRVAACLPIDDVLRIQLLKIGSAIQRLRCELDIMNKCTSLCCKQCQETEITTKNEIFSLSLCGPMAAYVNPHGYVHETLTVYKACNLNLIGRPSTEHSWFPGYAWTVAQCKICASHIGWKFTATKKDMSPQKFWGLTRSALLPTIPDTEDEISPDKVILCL
- Assay Comment: PROTAC activity at STAT6/CRBN in human MV4-11 cells assessed as reduction in STAT6 level incubated for 12 hrs by Western blot analysis
- Type: cell-based
Just the number please, in nM, no unit attached.

These recorded examples may help you get a feel for the data.
INSERT INTO measurements (molecule, value_measured) VALUES
  ('CC(C)(C)[C@H](NC(=O)c1cc2cc(C(F)(F)P(=O)(O)O)ccc2s1)C(=O)N1C[C@@H](NC(=O)CCCCCC#Cc2cccc3c2CN(C2CCC(=O)NC2=O)C3=O)C[C@H]1C(=O)N1CCO[C@H](c2ccccc2)C1 (stereo partly drawn)', 60),
  ('CC(C)(C)[C@H](NC(=O)c1cc2cc(C(F)(F)P(=O)(O)O)ccc2s1)C(=O)N1C[C@@H](OCCCCCC#Cc2cccc3c2CN(C2CCC(=O)NC2=O)C3=O)C[C@H]1C(=O)N1CCO[C@H](c2ccccc2)C1 (stereo partly drawn)', 1),
  ('CC(C)(C)[C@H](NC(=O)c1cc2cc(C(F)(F)P(=O)(O)O)ccc2s1)C(=O)N1C[C@@H](OCCCCCCNc2cccc3c2CN(C2CCC(=O)NC2=O)C3=O)C[C@H]1C(=O)N1CCO[C@H](c2ccccc2)C1 (stereo partly drawn)', 60),
  ('CC(C)(C)[C@H](NC(=O)c1cc2cc(C(F)(F)P(=O)(O)O)ccc2s1)C(=O)N1C[C@@H](OCCCCCCCC#Cc2cccc3c2CN(C2CCC(=O)NC2=O)C3=O)C[C@H]1C(=O)N1CCO[C@H](c2ccccc2)C1 (stereo partly drawn)', 60),
  ('CC(C)(C)[C@H](NC(=O)c1cc2cc(C(F)(F)P(=O)(O)O)ccc2s1)C(=O)N1C[C@@H](OCCCCC#Cc2cccc3c2CN(C2CCC(=O)NC2=O)C3=O)C[C@H]1C(=O)N1CCO[C@H](c2ccccc2)C1 (stereo partly drawn)', 50),
  ('CC(C)(C)[C@H](NC(=O)c1cc2cc(C(F)(F)P(=O)(O)O)ccc2s1)C(=O)N1C[C@@H](NC(=O)CCCCC#Cc2cccc3c2CN(C2CCC(=O)NC2=O)C3=O)C[C@H]1C(=O)N1CCO[C@H](c2ccccc2)C1 (stereo partly drawn)', 120),
  ('CC(C)(C)[C@H](NC(=O)c1cc2cc(C(F)(F)P(=O)(O)O)ccc2s1)C(=O)N1C[C@@H](OCCCCCCC#Cc2cccc3c2CN(C2CCC(=O)NC2=O)C3=O)C[C@H]1C(=O)N1CCO[C@H](c2ccccc2)C1 (stereo partly drawn)', 20);

Query molecule follows.
Looking for the measured DC50 of CC(C)(C)[C@H](NC(=O)c1cc2cc(C(F)(F)P(=O)(O)O)ccc2s1)C(=O)N1C[C@@H](NC(=O)CCCC#Cc2cccc3c2CN(C2CCC(=O)NC2=O)C3=O)C[C@H]1C(=O)N1CCO[C@H](c2ccccc2)C1 (stereo partly drawn) , can you help?
260

* * *

- Assay Comment: Stability in dog plasma assessed as parent compound remaining measured at 60 mins by LC-MS/MS analysis
- Format: ADME, cell-free, Canis lupus familiaris
- Setup Conditions: read-out: Stability
Measured Metric: remaining at 1 h

Looking for the measured remaining at 1 h of CC(C)(C)[C@H](NC(=O)c1cc2cc(C(F)(F)P(=O)(O)O)ccc2s1)C(=O)N1C[C@@H](OCCCCCC#Cc2cccc3c2CN(C2CCC(=O)NC2=O)C3=O)C[C@H]1C(=O)N1CCO[C@H](c2ccccc2)C1 (stereo partly specified) , can you help?
69%
